Catalogue of Ki readings, one per entry.
Biological target: Alpha-2C adrenergic receptor (Homo sapiens)
Sequence (P18825 whole entry): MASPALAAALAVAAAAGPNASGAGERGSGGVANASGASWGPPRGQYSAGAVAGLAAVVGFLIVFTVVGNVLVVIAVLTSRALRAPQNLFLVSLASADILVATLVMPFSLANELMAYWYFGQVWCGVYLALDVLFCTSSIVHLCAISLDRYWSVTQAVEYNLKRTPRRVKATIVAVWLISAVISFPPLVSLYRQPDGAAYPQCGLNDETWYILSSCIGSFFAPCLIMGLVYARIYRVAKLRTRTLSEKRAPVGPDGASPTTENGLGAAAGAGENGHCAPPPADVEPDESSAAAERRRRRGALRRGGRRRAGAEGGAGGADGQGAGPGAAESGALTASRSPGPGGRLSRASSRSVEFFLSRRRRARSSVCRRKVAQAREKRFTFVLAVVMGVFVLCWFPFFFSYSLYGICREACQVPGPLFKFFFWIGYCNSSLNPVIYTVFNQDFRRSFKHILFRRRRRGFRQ

Here are 4 compounds together with their reported answers.
compound="CC(C)=CCC[C@]1(C)[C@@H](CC=C(C)C)C[C@]2(CC=C(C)C)C(=O)C(CC=C(C)C)C(=O)[C@]1(C(=O)C(C)C)C2=O (stereo not given in full)" assay_target="Alpha-2C adrenergic receptor (Homo sapiens)" measured_parameter=Ki data_value="> 10 µM"
compound="C[C@@H]1O[C@@H](OC[C@H]2O[C@@H](Oc3c(-c4ccc(O)c(O)c4)oc4cc(O)cc(O)c4c3=O)[C@H](O)[C@@H](O)[C@@H]2O)[C@H](O)[C@H](O)[C@H]1O [3-Rhamnoglucosylquercetin]" assay_target="Alpha-2C adrenergic receptor (Homo sapiens)" measured_parameter=Ki data_value="9.64 µM"
compound=O=c1cc(O)cc2oc(-c3ccc(O)c(-c4c(O)cc(O)c5c(=O)cc(-c6ccc(O)cc6)oc45)c3)cc(O)c1-2 assay_target="Alpha-2C adrenergic receptor (Homo sapiens)" measured_parameter=Ki data_value="> 10 µM"
compound=O=c1c(O)c(-c2ccc(O)c(O)c2)oc2cc(O)cc(O)c12 assay_target="Alpha-2C adrenergic receptor (Homo sapiens)" measured_parameter=Ki data_value="> 10 µM"

Shifting focus to the compound that follows.
Exercise: Fill in the blank: the reported Ki of C[C@@H]1O[C@@H](Oc2c(-c3ccc(O)c(O)c3)oc3cc(O)cc(=O)c-3c2O)[C@H](O)[C@H](O)[C@H]1O is ____.
Solution: > 10 µM
